// values below are reported abundance fitness
B1: Transcription elongation factor A N-terminal and central domain-containing protein, residues 30 to 77; numbered along this chain, Q8N8B7 (parent)
chain: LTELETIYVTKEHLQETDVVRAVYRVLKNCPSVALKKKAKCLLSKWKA

- Variants of: B1
- assay_protocol: abundance fitness (aPCA) (normalised: wild type 0, dead -1); higher = more abundant; growth selection in yeast, the domain comes from the species named
- test_context: Homo sapiens
value_type: abundance fitness

{"seq_text": "LTELETIYVTTEHLQETDVVRAVYRVLKNCPSVALKKKAKCLLSKWKA [K11T]", "data_value": -0.555}
{"seq_text": "LTELETIYVTKEHLQETDVVRAVYRVLKNCPSVALKKKAKCLLSKWKR [A48R]", "data_value": 0.034}
{"seq_text": "LTELETISVTKEHLQETDVVRAVYRVLKNCPSVALKKKAKCLLSKWKA [Y8S]", "data_value": -0.388}
{"seq_text": "LTELETIYVTKEHLQETDVVRAVYRVLKNCPSVALAKKAKCLLSKWKA [K36A]", "data_value": -0.063}
{"seq_text": "LTELETIYVTKEHLQETDVVRAVYRVLKNCPSVALKKHAKCLLSKWKA [K38H]", "data_value": -0.529}
{"seq_text": "LTELETIYVTKEHLQETDVVRAVYRVLKVCPSVALKKKAKCLLSKWKA [N29V]", "data_value": -0.186}
{"seq_text": "LTELETIYVTKEHLQETDVVRAVYRVLKNMPSVALKKKAKCLLSKWKA [C30M]", "data_value": 0.035}
{"seq_text": "LTELETIYVTKEHLQETCVVRAVYRVLKNCPSVALKKKAKCLLSKWKA [D18C]", "data_value": -0.09}
{"seq_text": "LTELETIYVTKEHLQETDVVRAVYRVLNNCPSVALKKKAKCLLSKWKA [K28N]", "data_value": -0.445}
{"seq_text": "STELETIYVTKEHLQETDVVRAVYRVLKNCPSVALKKKAKCLLSKWKA [L1S]", "data_value": -0.501}
{"seq_text": "LTELETIYVTKEHLQGTDVVRAVYRVLKNCPSVALKKKAKCLLSKWKA [E16G]", "data_value": -0.008}
{"seq_text": "LTELETIYVTKEHLQESDVVRAVYRVLKNCPSVALKKKAKCLLSKWKA [T17S]", "data_value": -0.103}
{"seq_text": "LTELETIYVTKEHLQETDVVCAVYRVLKNCPSVALKKKAKCLLSKWKA [R21C]", "data_value": -0.468}
{"seq_text": "LTELETIYVTKEHLQETDVVRAVYRVLKLCPSVALKKKAKCLLSKWKA [N29L]", "data_value": 0.004}
{"seq_text": "LTELETIYVTKEHLQETDVVRAVYRVLKNCVSVALKKKAKCLLSKWKA [P31V]", "data_value": 0.337}
{"seq_text": "LTELETIYVTKEHLQETDVVRAVYRVLKNCPSVALKKTAKCLLSKWKA [K38T]", "data_value": -0.11}
{"seq_text": "LTELETIYVTKEHLQETDVVRAVYRVLKNCPSVALKKKAKCLLSKCKA [W46C]", "data_value": -0.313}
{"seq_text": "LTELETIYVTKEHLQETDVVRAVYRVLKNCPSVALKKKAKCLWSKWKA [L43W]", "data_value": 0.127}
{"seq_text": "LTELETIYVTKEHLQETDVVRALYRVLKNCPSVALKKKAKCLLSKWKA [V23L]", "data_value": 0.041}
{"seq_text": "LTEHETIYVTKEHLQETDVVRAVYRVLKNCPSVALKKKAKCLLSKWKA [L4H]", "data_value": 0.025}
{"seq_text": "LTELETIYVTKEHLQETDVVRSVYRVLKNCPSVALKKKAKCLLSKWKA [A22S]", "data_value": -0.007}
{"seq_text": "LTELETIYVTKEHSQETDVVRAVYRVLKNCPSVALKKKAKCLLSKWKA [L14S]", "data_value": 0.296}
{"seq_text": "LTELETIYVTKEHLQETDVVRAVYRVLRNCPSVALKKKAKCLLSKWKA [K28R]", "data_value": -0.033}
{"seq_text": "LTELETIYVTKEHLQETDVVRAVYRVLKNCPSVALKKKAKCLLSKWKV [A48V]", "data_value": -0.62}
{"seq_text": "LTELETIYVTKEHLQETDVVRAVYTVLKNCPSVALKKKAKCLLSKWKA [R25T]", "data_value": -0.528}
{"seq_text": "LTELETIYVTKEHLQETDVVRAVYRVLKNCPSVYLKKKAKCLLSKWKA [A34Y]", "data_value": -0.174}
{"seq_text": "LTELETIYSTKEHLQETDVVRAVYRVLKNCPSVALKKKAKCLLSKWKA [V9S]", "data_value": 0.085}
{"seq_text": "LTELETIYVTKEHLQETDVVRAVYRVLKNCPSVALKKKVKCLLSKWKA [A39V]", "data_value": 0.096}
{"seq_text": "LTELETIYVTFEHLQETDVVRAVYRVLKNCPSVALKKKAKCLLSKWKA [K11F]", "data_value": -0.747}
{"seq_text": "LTELETIYVTKEHLQETDVVRAVYRVGKNCPSVALKKKAKCLLSKWKA [L27G]", "data_value": -0.88}
{"seq_text": "LTELETIYVTKEHLQNTDVVRAVYRVLKNCPSVALKKKAKCLLSKWKA [E16N]", "data_value": -0.187}
{"seq_text": "LTELETIYVTKDHLQETDVVRAVYRVLKNCPSVALKKKAKCLLSKWKA [E12D]", "data_value": -0.184}
{"seq_text": "LTELETFYVTKEHLQETDVVRAVYRVLKNCPSVALKKKAKCLLSKWKA [I7F]", "data_value": -0.323}
{"seq_text": "LTELETIYVTKEHLQETDVVRAVYRVLKNCPSVALKKEAKCLLSKWKA [K38E]", "data_value": -0.933}
{"seq_text": "LTELETIYVTKEHLQETDVVRAVYRVLKYCPSVALKKKAKCLLSKWKA [N29Y]", "data_value": -0.466}
{"seq_text": "LTELETIYVTKEHLQEPDVVRAVYRVLKNCPSVALKKKAKCLLSKWKA [T17P]", "data_value": 0.057}
{"seq_text": "LTELETIYVTKERLQETDVVRAVYRVLKNCPSVALKKKAKCLLSKWKA [H13R]", "data_value": -0.126}
{"seq_text": "LTELETIYVTKEHLRETDVVRAVYRVLKNCPSVALKKKAKCLLSKWKA [Q15R]", "data_value": 0.093}
{"seq_text": "LTELETIYVTKEHLQETDVVRAVYRVLKNCPSVALKKDAKCLLSKWKA [K38D]", "data_value": -0.885}
{"seq_text": "LTELETIYVTKEHLQETDVVRAVYRVLKNCPSVALKKKCKCLLSKWKA [A39C]", "data_value": 0.072}
{"seq_text": "LTENETIYVTKEHLQETDVVRAVYRVLKNCPSVALKKKAKCLLSKWKA [L4N]", "data_value": 0.469}
{"seq_text": "LTELETIYVTKEHLQETDVVRAVYRVLKNCPFVALKKKAKCLLSKWKA [S32F]", "data_value": 0.211}
{"seq_text": "LTELETIYVTKEHLQETDVVRAVYRVLKNCPSQALKKKAKCLLSKWKA [V33Q]", "data_value": 0.007}
{"seq_text": "LTELETYYVTKEHLQETDVVRAVYRVLKNCPSVALKKKAKCLLSKWKA [I7Y]", "data_value": -0.422}
{"seq_text": "LTPLETIYVTKEHLQETDVVRAVYRVLKNCPSVALKKKAKCLLSKWKA [E3P]", "data_value": -0.45}
{"seq_text": "LRELETIYVTKEHLQETDVVRAVYRVLKNCPSVALKKKAKCLLSKWKA [T2R]", "data_value": 0.011}
{"seq_text": "LTELETIYVTKEHLQETDVVRAVYRVLENCPSVALKKKAKCLLSKWKA [K28E]", "data_value": -0.679}
{"seq_text": "LTELETIYVTKEHAQETDVVRAVYRVLKNCPSVALKKKAKCLLSKWKA [L14A]", "data_value": 0.241}
{"seq_text": "LTELETIYVTKEHLQETDMVRAVYRVLKNCPSVALKKKAKCLLSKWKA [V19M]", "data_value": 0.037}
{"seq_text": "LTELMTIYVTKEHLQETDVVRAVYRVLKNCPSVALKKKAKCLLSKWKA [E5M]", "data_value": -0.643}
{"seq_text": "LTELETIYVTKEHLQETDVVRNVYRVLKNCPSVALKKKAKCLLSKWKA [A22N]", "data_value": -0.099}
{"seq_text": "LTELETRYVTKEHLQETDVVRAVYRVLKNCPSVALKKKAKCLLSKWKA [I7R]", "data_value": 0.008}
{"seq_text": "LTELETIYVTKEHLQETDVVAAVYRVLKNCPSVALKKKAKCLLSKWKA [R21A]", "data_value": -0.457}
{"seq_text": "LTELETIYVTKEHLQETDVVRAVYRVLKNCPSVALKKKAKCPLSKWKA [L42P]", "data_value": -1.01}
{"seq_text": "LTELETIYVTKEHLQETDVVHAVYRVLKNCPSVALKKKAKCLLSKWKA [R21H]", "data_value": -0.067}
{"seq_text": "LTELETIYVTKEHLQETDVVRAVYRVLKNCPSVALKKKAKCLMSKWKA [L43M]", "data_value": -0.138}
{"seq_text": "LTELETIYVTKEHLQEGDVVRAVYRVLKNCPSVALKKKAKCLLSKWKA [T17G]", "data_value": -0.092}
{"seq_text": "LTELETIYVTKEHLQETDVVRAVYWVLKNCPSVALKKKAKCLLSKWKA [R25W]", "data_value": -0.837}
{"seq_text": "LTELETIYVTKEHLQETDVVRAVYRVLKNCPSTALKKKAKCLLSKWKA [V33T]", "data_value": -0.146}
{"seq_text": "LTELETIYVTKEHLQETDVVRAVYRVLKNCPSVALKKKAKCLLCKWKA [S44C]", "data_value": -0.73}
{"seq_text": "LTELETIYVTKEHLQETDVVRAVYRVLKNCPSVELKKKAKCLLSKWKA [A34E]", "data_value": -0.308}
{"seq_text": "LTELETIYVTKEHLQETDVVRAVYRVLKNCPSVALKKKAKCLLSKSKA [W46S]", "data_value": -0.96}
{"seq_text": "LTELETIYVTKEHLQETDVVRAVYRVLKNCPSVALKKKAKCLLDKWKA [S44D]", "data_value": -0.537}
{"seq_text": "LTELETIYVTKSHLQETDVVRAVYRVLKNCPSVALKKKAKCLLSKWKA [E12S]", "data_value": -0.168}
{"seq_text": "LTELETIYVTKEHLQETDVVRAVDRVLKNCPSVALKKKAKCLLSKWKA [Y24D]", "data_value": -0.217}
{"seq_text": "LTELETIYVTKEHLQETDKVRAVYRVLKNCPSVALKKKAKCLLSKWKA [V19K]", "data_value": -0.39}
{"seq_text": "LTELETIYVTKEHLQETDFVRAVYRVLKNCPSVALKKKAKCLLSKWKA [V19F]", "data_value": -0.362}
{"seq_text": "LTELETIYVTKEHLQETDVVRAVYRVLKNCPSVALKKKAKCLLSLWKA [K45L]", "data_value": -0.513}
{"seq_text": "LTELETIYVTKEHWQETDVVRAVYRVLKNCPSVALKKKAKCLLSKWKA [L14W]", "data_value": 0.094}
{"seq_text": "LTELETIYVTKEHLQEEDVVRAVYRVLKNCPSVALKKKAKCLLSKWKA [T17E]", "data_value": -0.315}
{"seq_text": "LTELETIYETKEHLQETDVVRAVYRVLKNCPSVALKKKAKCLLSKWKA [V9E]", "data_value": 0.318}
{"seq_text": "LTELETIYVTKEHLQETDVVRAVYRVLQNCPSVALKKKAKCLLSKWKA [K28Q]", "data_value": -0.734}
{"seq_text": "LTEQETIYVTKEHLQETDVVRAVYRVLKNCPSVALKKKAKCLLSKWKA [L4Q]", "data_value": 0.142}
{"seq_text": "LTELETIYVTKEHLQETDVVRAVYRVLKNCPSVALKKYAKCLLSKWKA [K38Y]", "data_value": -0.265}
{"seq_text": "LTELETIYVTKEHLQETDVVRAVYRVLKNCPSVALKWKAKCLLSKWKA [K37W]", "data_value": -0.68}
{"seq_text": "LTELITIYVTKEHLQETDVVRAVYRVLKNCPSVALKKKAKCLLSKWKA [E5I]", "data_value": -0.48}
{"seq_text": "LTELETIYVTKEHLQETDVVRAVYRVLKNCPSVALKKKAKCTLSKWKA [L42T]", "data_value": -0.703}
{"seq_text": "LTELETIYVTKEHLQETDVVRAVYRVLKNCWSVALKKKAKCLLSKWKA [P31W]", "data_value": 0.382}
{"seq_text": "LTELETIYVTKEHLQETDVVRAVYRVLKNCPSVALKKKAKCLLSKWAA [K47A]", "data_value": -0.739}
